target-under-test: T1, EGFI-Cr1 F39A (human, UniProt P16422 24-63)
T1 construct: not shown: The fused constant region of human immunoglobulin gamma 1 heavy chain (Cr1)
T1 chain: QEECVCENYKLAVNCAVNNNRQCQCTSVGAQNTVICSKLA
procedure-summary: direct ELISA, coated EGFI-Cr1 fusion, 0.1 µg/ml antibody
What relative binding activity (% of WT) was measured for each of the following?
State the answer as a number, implicitly in %.

Given murine monoclonal antibody 4D2 (antibody, mouse IgG1, V domains shown, Mouse IgG1, kappa, from hybridoma; also called m338-4D2.20) VH: EVQLVESGGDLVKPGGSLKLSCAASGFAFDSYGMSWVRQTPGKRLEWVATISSGGYYTYYQDSVKGRFTTSRDNAKNTLDLQMSSLKSEDSAIYYCARRGNYDVDYYAMDYWGQGTSVTVSS VL: DVVMTQTPLSLPVSLGDQASISCRSSQSLVHSNGNTYLHWYLQKPGQSPKLLIYKVSNRFSGVPDRFSGSGSGTDFTLRISRVEAEDLGVYFCSQSTHVPPWTFGGGTKLEIKR , respond with its relative binding activity (% of WT).
11

Given murine monoclonal antibody 6D11 (antibody, mouse IgG1, V domains shown, Mouse IgG1, kappa, from hybridoma; also called m338-6D11.8) VH: EVQLVESGGDLVKPGGSLKLSCAASGFAFDSYGMSWIRQTPGTRLEWVATISSGGYYTYYEDNVKGRFIISRDNAKNTLDLQMSGLKSEDAATYYCARRGNYDVDYYAMDYWGQGTSVIVSS VL: DVVLTQIPLSLPVSLGDQASISCRSSQSLEHSNGNTYLHWYLQKPGQSPKLLIYKVSNRFSGVPDRFSGSGSGTDFTLKISRVEAEDLGVYFCSQSTHVPPWTFGGGTKLEFKR , respond with its relative binding activity (% of WT).
23

Given murine monoclonal antibody 12H8 (antibody, mouse IgG2a, V domains shown, Mouse IgG2a, kappa, from hybridoma; also called m342-12H8.3; m12H8) VH: QIQLVQSGPELKKPGETVKISCKTSGYTFTDYSMHWVNQAPGKGLKWMGWINTETGEPTYTDDFKGRFAFSLETSASTAYLQINNLKNEDTATYFCARTAVYWGQGTTLTVSS VL: DIQMTQSPSSLSASLGERVSLTCRASQEISGSLSWLQQKPDGTIKRLIYAASTLNSGVPKRFSGRRSGSDYSLTISSLESEDFVDYYCLQYSSYPWSFGGGTKLEIKR , respond with its relative binding activity (% of WT).
96

Given murine monoclonal antibody 1F10 (antibody, mouse IgG1, V domains shown, Mouse IgG1, lambda 1, from hybridoma; also called m338-1F10.3) VH: EVKLLESGGGLVQPGGSLKLSCAASGFDFSRYWMSWVRQAPGKGLEWIGEINPDSSTMNYTPSLKDKFIISRDNAKNTLYLQMSKVRSEDTALYYCARGAYAMDYWGQGTSVTVSS VL: QAVVTQESALTTSPGETVTLTCRSSTGAVTTSNNANWVQEKPDHLFTGLIGATNNRAPGVPARFSGSLIGDKAALTITGAQTEDEAIYFCALWYINHWVFGGGTKLTVLG , respond with its relative binding activity (% of WT).
81

Given murine monoclonal antibody 1G10 (antibody, mouse IgG1, V domains shown, Mouse IgG1, kappa, from hybridoma; also called m290-1G10) VH: QIQLVQSGPELKKPGETVKISCKASGYTFTNYGMNWVKQAPGKGFKWMGWINTYTGEPTYADDFKGRFAFSLETSASTAYLQINNLQNEDMATYFCARWGYDFDYWGQGTTLTVSS VL: QIVLTQSPAIMSSSPGEKVTMTCSASSSISYMNWYQQKPGTSPKRWIYDTSKLASGVPARFSGSGSGTSYSLTISSMEAEDAATYYCHQRSSYPYTFGGGTKLEIKR , respond with its relative binding activity (% of WT).
78

Given murine monoclonal antibody 2D11 (antibody, mouse IgG1, V domains shown, Mouse IgG1, kappa, from hybridoma; also called m322-2D11.19) VH: QIQLVQSGPELKKPGETVKISCKASGYTFTNYGMNWVKQAPGKGLKWMGWINTNTGEATYVEEFKGRVVFSLETSASTAYLQINNLKNEDTATYFCARIGYVWYFDVWGAGTTVTVSS VL: DIVMSQSPSSLAVSAGEKVTMSCKSSQSLFSSRTRKNYLAWYQQKPGQSPKLLIYWASTRESGVPDRFTGSGSGTDFTLTINSVQAEDLAVYYCKHSNNLFTFGSGTKLEIKR , respond with its relative binding activity (% of WT).
97
